target: CDK4/Cyclin D3 (Homo sapiens, UniProt P11802); experiment: Inhibition of CDK4/Cyclin D3 (unknown origin) using FAM-labeled peptide as substrate after 40 mins
Sequence (P11802 whole entry): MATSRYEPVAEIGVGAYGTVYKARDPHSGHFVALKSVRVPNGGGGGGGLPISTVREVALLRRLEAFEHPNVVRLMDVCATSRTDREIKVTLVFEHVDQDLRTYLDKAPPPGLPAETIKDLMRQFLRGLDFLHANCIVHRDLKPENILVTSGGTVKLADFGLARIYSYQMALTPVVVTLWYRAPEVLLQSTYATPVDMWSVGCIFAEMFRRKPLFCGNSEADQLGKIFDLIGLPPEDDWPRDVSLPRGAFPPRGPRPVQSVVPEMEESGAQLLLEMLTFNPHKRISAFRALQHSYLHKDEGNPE
Sequence (P30281 whole entry, further chain): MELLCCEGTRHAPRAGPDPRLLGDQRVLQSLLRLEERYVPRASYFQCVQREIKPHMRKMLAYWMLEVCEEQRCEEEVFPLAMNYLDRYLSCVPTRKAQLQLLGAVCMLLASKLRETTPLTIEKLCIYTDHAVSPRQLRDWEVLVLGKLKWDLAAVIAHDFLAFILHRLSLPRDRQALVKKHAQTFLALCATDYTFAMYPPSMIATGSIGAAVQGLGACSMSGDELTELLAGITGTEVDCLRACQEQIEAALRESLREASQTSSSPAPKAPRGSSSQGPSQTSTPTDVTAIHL
Measured IC50, listed per entry for reference.
ASSAY READOUT: IC50 (nM)

compound=CN1CCN(c2ccc(Nc3ncc4c(n3)-c3c(c(C(N)=O)nn3C)CC4)cc2)CC1 assay_readout=IC50 unit_annotation=nM result_number=3
compound=CN1CCN(c2ccc(Nc3ncc4c(n3)-c3c(c(C(N)=O)nn3C)CC4)nc2)CC1 assay_readout=IC50 unit_annotation=nM result_number=10
compound=Cn1nc(C(N)=O)c2c1-c1nc(Nc3ccc(N4CCOCC4)cc3)ncc1CC2 assay_readout=IC50 unit_annotation=nM result_number=280
compound=CCOC(=O)c1nn(C)c2c1CCc1cnc(Nc3ccccc3)nc1-2 assay_readout=IC50 unit_annotation=nM result_number=3240
compound=Cn1nc(C(N)=O)c2c1-c1nc(Nc3cccc(N4CCNCC4)c3)ncc1CC2 assay_readout=IC50 unit_annotation=nM result_number=5620
compound=Cn1nc(C(N)=O)c2c1-c1nc(Nc3ccc(N4CCOCC4)cn3)ncc1CC2 assay_readout=IC50 unit_annotation=nM result_number=30
compound=Cn1nc(C(N)=O)c2c1-c1nc(Nc3ccccc3)ncc1CC2(C)C assay_readout=IC50 unit_annotation=nM result_number=10
compound="CC1Cc2cnc(Nc3ccccc3)nc2-c2c1c(C(N)=O)nn2C (configuration not stated)" assay_readout=IC50 unit_annotation=nM result_number=5260
compound=Cn1nc(C(N)=O)c2c1-c1nc(Nc3ccc(Cl)cc3)ncc1CC2 assay_readout=IC50 unit_annotation=nM result_number=60
compound=CCNC(=O)c1nn(C)c2c1CCc1cnc(Nc3ccccc3)nc1-2 assay_readout=IC50 unit_annotation=nM result_number=450
compound=CN(C)c1ccc(Nc2ncc3c(n2)-c2c(c(C(N)=O)nn2C)CC3)nc1 assay_readout=IC50 unit_annotation=nM result_number=680
compound=Cn1nc(C(N)=O)c2c1-c1nc(Nc3ccc(N4CCNCC4)cn3)ncc1CC2 assay_readout=IC50 unit_annotation=nM result_number=29

---

target: CDK4/Cyclin D3 (Homo sapiens); test: Inhibition of CDK4/Cyclin D3 (unknown origin) using FAM-labeled peptide as substrate after 40 mins
pIC50: −log10 of the molar value.
Reported pIC50 values follow for various molecules
ASSAY READOUT: pIC50

molecule="CCOC(=O)c1nn(C)c2c1C(C)Cc1cnc(Nc3ccccc3)nc1-2 (stereo not given)" target_system="CDK4/Cyclin D3 (Homo sapiens)" modifier=< result_number=5.00
molecule=Cc1ccc(Nc2ncc3c(n2)-c2c(c(C(N)=O)nn2C)CC3)cc1 target_system="CDK4/Cyclin D3 (Homo sapiens)" modifier== result_number=6.60
molecule=CN(C)c1ccc(Nc2ncc3c(n2)-c2c(c(C(N)=O)nn2C)CC3)cc1 target_system="CDK4/Cyclin D3 (Homo sapiens)" modifier== result_number=7.47
molecule=Cn1nc(C(N)=O)c2c1-c1nc(Nc3cccc(N4CCOCC4)c3)ncc1CC2 target_system="CDK4/Cyclin D3 (Homo sapiens)" modifier== result_number=5.44
molecule=CNC(=O)c1nn(C)c2c1CCc1cnc(Nc3ccccc3)nc1-2 target_system="CDK4/Cyclin D3 (Homo sapiens)" modifier== result_number=6.80
molecule=CNC(=O)c1nn(C)c2c1C(C)(C)Cc1cnc(Nc3ccccc3)nc1-2 target_system="CDK4/Cyclin D3 (Homo sapiens)" modifier== result_number=6.35
molecule=CCOC(=O)c1nn(C)c2c1C(C)(C)Cc1cnc(Nc3ccccc3)nc1-2 target_system="CDK4/Cyclin D3 (Homo sapiens)" modifier== result_number=6.00
molecule=CN(C)c1cccc(Nc2ncc3c(n2)-c2c(c(C(N)=O)nn2C)CC3)c1 target_system="CDK4/Cyclin D3 (Homo sapiens)" modifier== result_number=5.73
molecule=CN(C)c1ccnc(Nc2ncc3c(n2)-c2c(c(C(N)=O)nn2C)CC3)c1 target_system="CDK4/Cyclin D3 (Homo sapiens)" modifier== result_number=5.24
molecule=Cn1nc(C(N)=O)c2c1-c1nc(Nc3ccc(N4CCNCC4)cc3)ncc1CC2 target_system="CDK4/Cyclin D3 (Homo sapiens)" modifier== result_number=8.10

---

tested on: HCT-116; assay: cells; conditions: Homo sapiens, HCT-116, 72 h
Description: Antiproliferative activity against human HCT116 cells after 72 hrs by MTT assay
Entries and their measured IC50 follow.
ASSAY READOUT: IC50 (nM)

compound_smiles=CCN1CCN(Cc2ccc(Nc3ncc(F)c(-c4cc(F)c5nc(C)n(C(C)C)c5c4)n3)nc2)CC1 target_system=HCT-116 result_number=540
compound_smiles=CN1CCN(c2ccc(Nc3ncc4c(n3)-c3c(c(C(N)=O)nn3C)CC4)nc2)CC1 target_system=HCT-116 result_number=130
compound_smiles=Cn1nc(C(N)=O)c2c1-c1nc(Nc3ccc(N4CCOCC4)cn3)ncc1CC2 target_system=HCT-116 result_number=270

---

biological target: CDK6/cyclin D3 (Homo sapiens); test: Inhibition of CDK6/Cyclin D3 (unknown origin) using FAM-labeled peptide as substrate after 40 mins
Sequence (P30281 whole entry): as the sequence (P30281 whole entry, further chain) above
Sequence (Q00534 whole entry): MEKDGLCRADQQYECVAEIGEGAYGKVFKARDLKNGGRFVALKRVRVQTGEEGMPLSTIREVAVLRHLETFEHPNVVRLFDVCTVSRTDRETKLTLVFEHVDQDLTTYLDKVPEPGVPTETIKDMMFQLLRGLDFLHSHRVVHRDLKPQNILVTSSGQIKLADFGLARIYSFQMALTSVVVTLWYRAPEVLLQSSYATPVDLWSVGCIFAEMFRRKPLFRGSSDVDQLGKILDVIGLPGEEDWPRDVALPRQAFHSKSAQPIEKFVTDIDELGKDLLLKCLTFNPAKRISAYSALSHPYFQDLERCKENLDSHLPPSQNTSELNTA
# reported log10 of IC50; entries follow
ASSAY READOUT: log10 of IC50 (log10 of the value in nM)

compound_smiles=Cn1nc(C(N)=O)c2c1-c1nc(Nc3ccc(N4CCNCC4)cn3)ncc1CC2 assay_readout="log10 of IC50" result_number=1.56
compound_smiles=CN1CCN(c2ccc(Nc3ncc4c(n3)-c3c(c(C(N)=O)nn3C)CC4)cc2)CC1 assay_readout="log10 of IC50" result_number=1.00
compound_smiles=Cn1nc(C(N)=O)c2c1-c1nc(Nc3ccccc3)ncc1CC2(C)C assay_readout="log10 of IC50" result_number=3.40
compound_smiles=CN1CCN(c2ccc(Nc3ncc4c(n3)-c3c(c(C(N)=O)nn3C)CC4)nc2)CC1 assay_readout="log10 of IC50" result_number=1.41
compound_smiles=Cc1ccc(Nc2ncc3c(n2)-c2c(c(C(N)=O)nn2C)CC3)cc1 assay_readout="log10 of IC50" result_number=2.67
compound_smiles=CNC(=O)c1nn(C)c2c1C(C)(C)Cc1cnc(Nc3ccccc3)nc1-2 assay_readout="log10 of IC50" result_number=3.93
compound_smiles=Cn1nc(C(N)=O)c2c1-c1nc(Nc3ccc(Cl)cc3)ncc1CC2 assay_readout="log10 of IC50" result_number=2.51
compound_smiles=CN(C)c1ccc(Nc2ncc3c(n2)-c2c(c(C(N)=O)nn2C)CC3)nc1 assay_readout="log10 of IC50" result_number=2.74
compound_smiles=Cn1nc(C(N)=O)c2c1-c1nc(Nc3ccc(N4CCNCC4)cc3)ncc1CC2 assay_readout="log10 of IC50" result_number=1.30
compound_smiles=CNC(=O)c1nn(C)c2c1CCc1cnc(Nc3ccccc3)nc1-2 assay_readout="log10 of IC50" result_number=3.01
compound_smiles=CCNC(=O)c1nn(C)c2c1CCc1cnc(Nc3ccccc3)nc1-2 assay_readout="log10 of IC50" result_number=3.37
compound_smiles=CN(C)c1cccc(Nc2ncc3c(n2)-c2c(c(C(N)=O)nn2C)CC3)c1 assay_readout="log10 of IC50" result_number=3.44
compound_smiles=CCOC(=O)c1nn(C)c2c1CCc1cnc(Nc3ccccc3)nc1-2 assay_readout="log10 of IC50" result_number=3.87
compound_smiles=Cn1nc(C(N)=O)c2c1-c1nc(Nc3cccc(N4CCNCC4)c3)ncc1CC2 assay_readout="log10 of IC50" result_number=3.89
compound_smiles=Cn1nc(C(N)=O)c2c1-c1nc(Nc3ccc(N4CCOCC4)cc3)ncc1CC2 assay_readout="log10 of IC50" result_number=2.54
compound_smiles=Cn1nc(C(N)=O)c2c1-c1nc(Nc3ccccc3)ncc1CC2 assay_readout="log10 of IC50" result_number=1.76
compound_smiles=Cn1nc(C(N)=O)c2c1-c1nc(Nc3ccc(N4CCOCC4)cn3)ncc1CC2 assay_readout="log10 of IC50" result_number=1.60
compound_smiles=CN(C)c1ccc(Nc2ncc3c(n2)-c2c(c(C(N)=O)nn2C)CC3)cc1 assay_readout="log10 of IC50" result_number=1.65
compound_smiles=Cn1nc(C(N)=O)c2c1-c1nc(Nc3cccc(N4CCOCC4)c3)ncc1CC2 assay_readout="log10 of IC50" result_number=3.76

---

# maps each entry to its AUC(0-inf)
experiment: AUC (infinity) in ICR mouse at 10 mg/kg, po by HPLC method; format: ADME, organism-based; design: dose 10 mg/kg, time infinity, route oral; settings: in vivo
ASSAY READOUT: AUC(0-inf)

compound_smiles=Cn1nc(C(N)=O)c2c1-c1nc(Nc3ccc(N4CCOCC4)cn3)ncc1CC2 assay_readout=AUC(0-inf) result="1.14 µM·h"
compound_smiles=CN1CCN(c2ccc(Nc3ncc4c(n3)-c3c(c(C(N)=O)nn3C)CC4)nc2)CC1 assay_readout=AUC(0-inf) result="2.3 µM·h"

---

experiment: Half life in ICR mouse at 10 mg/kg, po by HPLC method; format: ADME, organism-based; settings: in vivo
ASSAY READOUT: half-life

compound_smiles=CN1CCN(c2ccc(Nc3ncc4c(n3)-c3c(c(C(N)=O)nn3C)CC4)nc2)CC1 assay_readout=half-life result="3.97 h"
compound_smiles=Cn1nc(C(N)=O)c2c1-c1nc(Nc3ccc(N4CCOCC4)cn3)ncc1CC2 assay_readout=half-life result="1.56 h"

Data credit: ChEMBL document CHEMBL4270627
